Data origin, for the record: ChEMBL document CHEMBL1138904

The following molecules are shown together with reported bioavailability values.
Test: Oral bioavailability in Sprague-Dawley rat at 1 mg/kg, iv and 2 mg/kg, po
Format: ADME, organism-based
Conditions: in vivo

MOLECULE: CC(C)Cc1ccc(-c2nc(-c3ccc([C@H]4C[C@H](CC(=O)O)CN4)cc3)no2)cc1 (relative stereo)
bioavailability (%): 79
--
MOLECULE: CC(C)Cc1ccc(-c2nc(-c3ccc([C@H]4C[C@@H](CC(=O)O)CN4)cc3)no2)cc1 (relative stereo)
bioavailability (%): 27
--
MOLECULE: CC(C)Cc1ccc(-c2nc(-c3ccc(CN4CC(C(=O)O)C4)cc3)no2)cc1
bioavailability (%): 67
--
MOLECULE: O=C(O)C[C@@H]1CN[C@@H](c2ccc(-c3noc(-c4ccc(C5CCC(F)(F)CC5)cc4)n3)cc2)C1 (relative stereo)
bioavailability (%): 23
--
MOLECULE: O=C(O)C[C@@H]1CN[C@@H](c2ccc(-c3noc(-c4ccc([C@@H]5CCC(F)(F)C5)cc4)n3)cc2)C1 (stereo in doubt; 22g)
bioavailability (%): 36

---

Molecular target: Sphingosine 1-phosphate receptor 2 (Homo sapiens, UniProt O95136)
Sequence (O95136 whole entry): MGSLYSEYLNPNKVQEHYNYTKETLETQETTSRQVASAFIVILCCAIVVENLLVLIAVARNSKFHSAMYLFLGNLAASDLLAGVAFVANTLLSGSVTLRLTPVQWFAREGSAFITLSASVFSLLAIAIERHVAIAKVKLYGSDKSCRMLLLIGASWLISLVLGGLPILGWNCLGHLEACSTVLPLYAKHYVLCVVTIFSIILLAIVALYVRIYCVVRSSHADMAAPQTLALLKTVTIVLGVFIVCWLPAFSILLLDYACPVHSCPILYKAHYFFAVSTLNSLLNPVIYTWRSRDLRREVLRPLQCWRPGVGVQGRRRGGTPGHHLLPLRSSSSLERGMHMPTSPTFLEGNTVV
Assay: Displacement of [33P]S1P from human S1P2 receptor expressed in CHO cells
Assay type: cell-based
Conditions: cho
pIC50: −log10 of the molar value.

COMPOUND: O=C(O)C[C@@H]1CN[C@@H](c2ccc(-c3noc(-c4ccc([C@@H]5CCC(F)(F)C5)cc4)n3)cc2)C1 (stereo in doubt; 22f)
pIC50: < 5.00

---

Experiment: Volume of distribution in Sprague-Dawley rat at 1 mg/kg, iv and 2 mg/kg, po
Format: ADME, organism-based
Conditions: in vivo, read-out: Vss

MOLECULE: O=C(O)C[C@@H]1CN[C@@H](c2ccc(-c3noc(-c4ccc(C5CCC(F)(F)CC5)cc4)n3)cc2)C1 (relative stereo)
Vd, L/kg: 2.2
--
MOLECULE: CC(C)Cc1ccc(-c2nc(-c3ccc([C@H]4C[C@@H](CC(=O)O)CN4)cc3)no2)cc1 (relative stereo)
Vd, L/kg: 2.9
--
MOLECULE: O=C(O)C[C@@H]1CN[C@@H](c2ccc(-c3noc(-c4ccc([C@@H]5CCC(F)(F)C5)cc4)n3)cc2)C1 (stereo in doubt; 22g)
Vd, L/kg: 1.3
--
MOLECULE: CC(C)Cc1ccc(-c2nc(-c3ccc([C@H]4C[C@H](CC(=O)O)CN4)cc3)no2)cc1 (relative stereo)
Vd, L/kg: 6.6

---

Target: Sphingosine 1-phosphate receptor 2 (Homo sapiens, UniProt O95136)
Test: Displacement of [33P]S1P from human S1P2 receptor expressed in CHO cells
Type: cell-based
QUANTITY_MEASURED: IC50

COMPOUND: CC(C)Cc1ccc(-c2nc(-c3ccc([C@H]4C[C@@H](CC(=O)O)CN4)cc3)no2)cc1 (relative stereo)
ASSAY_TARGET: Sphingosine 1-phosphate receptor 2 (Homo sapiens, UniProt O95136)
QUANTITY_MEASURED: IC50
RESULT: > 10 µM
//
COMPOUND: O=C(O)C[C@@H]1CN[C@@H](c2ccc(-c3noc(-c4ccc(C5CCCC5)cc4)n3)cc2)C1 (relative stereo)
ASSAY_TARGET: Sphingosine 1-phosphate receptor 2 (Homo sapiens, UniProt O95136)
QUANTITY_MEASURED: IC50
RESULT: > 10 µM
//
COMPOUND: O=C(O)C[C@@H]1CN[C@@H](c2ccc(-c3noc(-c4ccc(C5CCC(F)(F)CC5)cc4)n3)cc2)C1 (relative stereo)
ASSAY_TARGET: Sphingosine 1-phosphate receptor 2 (Homo sapiens, UniProt O95136)
QUANTITY_MEASURED: IC50
RESULT: > 10 µM
//
COMPOUND: O=C(O)C1CNC(c2ccc(OCc3cc(-c4ccccc4)c(C(F)(F)F)s3)cc2)C1 (centres undefined)
ASSAY_TARGET: Sphingosine 1-phosphate receptor 2 (Homo sapiens, UniProt O95136)
QUANTITY_MEASURED: IC50
RESULT: > 10 µM
//
COMPOUND: O=C(O)C[C@@H]1CN[C@@H](c2ccc(-c3noc(-c4ccc(C5CCCCC5)cc4)n3)cc2)C1 (relative stereo)
ASSAY_TARGET: Sphingosine 1-phosphate receptor 2 (Homo sapiens, UniProt O95136)
QUANTITY_MEASURED: IC50
RESULT: > 10 µM
//
COMPOUND: O=C(O)C[C@@H]1CN[C@@H](c2ccc(-c3noc(-c4ccc([C@@H]5CCC(F)(F)C5)cc4)n3)cc2)C1 (stereo in doubt; 22g)
ASSAY_TARGET: Sphingosine 1-phosphate receptor 2 (Homo sapiens, UniProt O95136)
QUANTITY_MEASURED: IC50
RESULT: > 10 µM
//
COMPOUND: O=C(O)C[C@@H]1CN[C@@H](c2ccc(-c3noc(-c4ccc(CCC(F)(F)F)cc4)n3)cc2)C1 (relative stereo)
ASSAY_TARGET: Sphingosine 1-phosphate receptor 2 (Homo sapiens, UniProt O95136)
QUANTITY_MEASURED: IC50
RESULT: > 10 µM
//
COMPOUND: CC(C)Cc1ccc(-c2nc(-c3ccc([C@H]4C[C@H](CC(=O)O)CN4)cc3)no2)cc1 (relative stereo)
ASSAY_TARGET: Sphingosine 1-phosphate receptor 2 (Homo sapiens, UniProt O95136)
QUANTITY_MEASURED: IC50
RESULT: > 10 µM
//
COMPOUND: O=C(O)CC1CNC(c2ccc(OCc3cc(-c4ccccc4)c(C(F)(F)F)s3)cc2)C1 (centres undefined)
ASSAY_TARGET: Sphingosine 1-phosphate receptor 2 (Homo sapiens, UniProt O95136)
QUANTITY_MEASURED: IC50
RESULT: > 10 µM
